# study.target: T1, rat APJ receptor (rat, UniProt Q9JHG3 1-377)
# T1 sequence (looked up): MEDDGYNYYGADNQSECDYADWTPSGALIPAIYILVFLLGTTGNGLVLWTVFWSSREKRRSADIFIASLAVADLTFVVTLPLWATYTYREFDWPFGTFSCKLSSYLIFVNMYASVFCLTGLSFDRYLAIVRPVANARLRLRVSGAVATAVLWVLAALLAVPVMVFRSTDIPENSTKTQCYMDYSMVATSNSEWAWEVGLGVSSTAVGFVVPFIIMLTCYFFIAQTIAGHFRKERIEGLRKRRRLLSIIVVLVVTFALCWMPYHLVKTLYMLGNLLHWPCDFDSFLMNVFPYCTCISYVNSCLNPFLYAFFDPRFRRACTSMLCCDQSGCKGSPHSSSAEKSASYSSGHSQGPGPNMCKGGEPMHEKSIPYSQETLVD
# experiment.description: cell-based or functional assay
Starred links: 1 amine or outer side, 2 acyl side, 3 side chain; linkers in the order of their positions; H or OH if unused. Non-standard residues stand in square brackets, D forms with d. *: point of attachment. AC4Abu = α-carboxy-4-aminobutyric acid, O=C(C(CCN[*:1])C(=O)[*:3])[*:2]; Oic = O=C(O)[C@@H]1C[C@@H]2CCCC[C@@H]2N1; Phe(4-Cl) = N[C@@H](Cc1ccc(Cl)cc1)C(=O)O; γGlu = O=C(O)[C@H](CCC(=O)[*:2])N[*:1]; NMeR = CN[C@@H](CCCNC(=N)N)C(=O)O; Tridecanoyl = CCCCCCCCCCCCC(=O)*; hArg = N=C(N)NCCCC[C@H](N)C(=O)O; Cha = N[C@@H](CC1CCCCC1)C(=O)O; αMeP = C[C@@]1(C(=O)O)CCCN1; Nle = CCCC[C@H](N)C(=O)O; AEEA = NCCOCCOCC(=O)O; BLeu = β-leucine
Please go through the items and note down their EC50 Rat APJ Receptor (GTPγS assay).
Answer in nM, number only, no unit symbol.

Enquiry: Report measured EC50 Rat APJ Receptor (GTPγS assay); entry is XXXQRPRLSHKGPXPF ({TDA}[AC4Abu][Aeea][Aeea]QrP[hArg][aMeLeu]SHKGP[Nle]P[4-Cl-F]{COOH}) [Apelin polypeptide SEQ ID NO: 485]
Return: 0.41

Enquiry: Entry XXXQRPRLSHKGXXPF ({TDA}[AC4Abu][Aeea][Aeea]QRP[NMeArg][aMeLeu]SHKG[Pip][Nle][aMePro][4-Cl-F]{COOH}) [Apelin polypeptide SEQ ID NO: 605] needs its EC50 Rat APJ Receptor (GTPγS assay) filled in; supply it.
Return: 0.298

Enquiry: Output EC50 Rat APJ Receptor (GTPγS assay) of Tridecanoyl-[AC4Abu][AEEA][AEEA]QR[αMeP][hArg][BLeu]SHKG[Oic][Nle]P[Phe(4-Cl)]-OH [Apelin polypeptide SEQ ID NO: 392]
Return: 0.856

Enquiry: Kindly indicate its recorded EC50 Rat APJ Receptor (GTPγS assay). Item: XXXQRPRLSHKGPXPF ({TDA}[AC4Abu][Aeea][Aeea]QRP[NMeArg][aMeLeu]SHKG[aMePro][Nle]P[4-Cl-F]{COOH}) [Apelin polypeptide SEQ ID NO: 387]
Return: 0.166

Enquiry: Specify EC50 Rat APJ Receptor (GTPγS assay) for Tridecanoyl-[γGlu][AEEA][AEEA]QRP[NMeR][Cha]SHKGP[Nle]P[Phe(4-Cl)]-OH (SMILES CCCCCCCCCCCCC(=O)N[C@@H](CCC(=O)NCCOCCOCC(=O)NCCOCCOCC(=O)N[C@@H](CCC(N)=O)C(=O)N[C@@H](CCCNC(=N)N)C(=O)N1CCC[C@H]1C(=O)N(C)[C@@H](CCCNC(=N)N)C(=O)N[C@@H](CC1CCCCC1)C(=O)N[C@@H](CO)C(=O)N[C@@H](Cc1c[nH]cn1)C(=O)N[C@@H](CCCCN)C(=O)NCC(=O)N1CCC[C@H]1C(=O)N[C@@H](CCCC)C(=O)N1CCC[C@H]1C(=O)N[C@@H](Cc1ccc(Cl)cc1)C(=O)O)C(=O)O) [Apelin polypeptide SEQ ID NO: 361] and stop.
Return: 0.086

Enquiry: Fill in reported EC50 Rat APJ Receptor (GTPγS assay) for this entry: Tridecanoyl-[γGlu][AEEA][AEEA][dQ][hArg]P[dR][Cha]SHKG[Oic][Nle]P[Phe(4-Cl)]-OH [Apelin polypeptide SEQ ID NO: 363]
Return: 3.96

Enquiry: Identify measured EC50 Rat APJ Receptor (GTPγS assay) corresponding to Tridecanoyl-[γGlu][AEEA][AEEA]QEP[NMeR]LSHKGP[Nle]P[Phe(4-Cl)]-OH (SMILES CCCCCCCCCCCCC(=O)N[C@@H](CCC(=O)NCCOCCOCC(=O)NCCOCCOCC(=O)N[C@@H](CCC(N)=O)C(=O)N[C@@H](CCC(=O)O)C(=O)N1CCC[C@H]1C(=O)N(C)[C@@H](CCCNC(=N)N)C(=O)N[C@@H](CC(C)C)C(=O)N[C@@H](CO)C(=O)N[C@@H](Cc1c[nH]cn1)C(=O)N[C@@H](CCCCN)C(=O)NCC(=O)N1CCC[C@H]1C(=O)N[C@@H](CCCC)C(=O)N1CCC[C@H]1C(=O)N[C@@H](Cc1ccc(Cl)cc1)C(=O)O)C(=O)O) [Apelin polypeptide SEQ ID NO: 475]
Return: 35.9
